Hello, the source for this data is paper PMC7327145, in case you need it.

Assay type: in vivo, rat
Conditions: rat, plasma, iv, 10 mg/kg, MRT, SIDM rats
Readout Type: MRT (min)
The response must be a number in min with no trailing unit.

Q) What value of measured MRT is listed for C[C@@H]1CCN(C(=O)CC#N)C[C@@H]1N(C)c1ncnc2[nH]ccc12 ?
A) 44.3

====

Type: in vivo, rat
Details: rat, plasma and urine, po, 20 mg/kg, CLR, oral 20 mg/kg, control rats
Readout Type: CL renal

Q) What value of measured CL renal is listed for C[C@@H]1CCN(C(=O)CC#N)C[C@@H]1N(C)c1ncnc2[nH]ccc12 ?
A) 8.86 mL/min/kg

====

Assay type: in vivo, rat
Conditions: rat, plasma, iv, 10 mg/kg, CL, control rats
Readout Type: clearance (mL/min/kg)
The response must be a number in mL/min/kg with no trailing unit.

Q) What value of measured clearance is listed for C[C@@H]1CCN(C(=O)CC#N)C[C@@H]1N(C)c1ncnc2[nH]ccc12 [tofacitinib] ?
A) 39.9
